These entries and their values trace back to patent US9255100B2.

Biological target: N-terminally GST-tagged human full length recombinant Mps-1 kinase (Homo sapiens, UniProt P33981)
Construct: N-terminally GST-tagged human full length recombinant Mps-1 kinase; purchased Invitrogen, Karslruhe, Germany PV4071
Sequence (P33981 whole entry): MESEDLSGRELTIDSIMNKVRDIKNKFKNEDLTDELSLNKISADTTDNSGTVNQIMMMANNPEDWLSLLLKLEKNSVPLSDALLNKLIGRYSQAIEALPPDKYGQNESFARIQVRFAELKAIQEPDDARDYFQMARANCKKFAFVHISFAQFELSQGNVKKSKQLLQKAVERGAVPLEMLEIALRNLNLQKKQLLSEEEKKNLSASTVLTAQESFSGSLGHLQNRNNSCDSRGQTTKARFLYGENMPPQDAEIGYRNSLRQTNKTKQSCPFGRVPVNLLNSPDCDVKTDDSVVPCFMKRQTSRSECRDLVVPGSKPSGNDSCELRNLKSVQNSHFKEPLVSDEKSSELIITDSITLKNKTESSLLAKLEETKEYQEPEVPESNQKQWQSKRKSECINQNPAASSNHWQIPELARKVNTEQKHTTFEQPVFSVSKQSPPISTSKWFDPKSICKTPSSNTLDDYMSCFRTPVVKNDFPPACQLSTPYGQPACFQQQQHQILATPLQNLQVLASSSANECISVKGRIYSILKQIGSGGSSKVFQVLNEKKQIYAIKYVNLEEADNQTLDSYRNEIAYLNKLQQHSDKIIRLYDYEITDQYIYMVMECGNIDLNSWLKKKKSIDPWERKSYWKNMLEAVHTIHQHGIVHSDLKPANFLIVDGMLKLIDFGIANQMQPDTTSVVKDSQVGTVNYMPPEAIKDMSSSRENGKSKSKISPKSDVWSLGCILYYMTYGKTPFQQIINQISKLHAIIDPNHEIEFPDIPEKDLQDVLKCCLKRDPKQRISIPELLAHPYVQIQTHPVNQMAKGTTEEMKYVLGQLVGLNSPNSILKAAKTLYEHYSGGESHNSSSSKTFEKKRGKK
Assay: Mps-1 kinase assay (TR-FRET)
Type: biochemical
Conditions: Mps1 IC50 [nM], 10 μM ATP, 1 μM peptide substrate, 60 min at 22° C.
Overview of recorded IC50 for various molecules
# output: bare number, implied unit nM

Solved cases below.
>  <molecule>
Cc1cc(-c2cnc3c(NCC(C)(C)O)cc(Nc4ccc(F)nc4)nn23)ccc1C(=O)NC1CC1 [Example 406]

>  <IC50 / nM>
0.4

$$$$
>  <molecule>
Cc1cc(-c2cnc3c(NCC(C)(C)O)cc(OCC4CC4(F)F)nn23)ccc1C(=O)NC1CC1 (racemic) [Example 240]

>  <IC50 / nM>
1.2

$$$$
>  <molecule>
Cc1cc(-c2cnc3c(NCC(C)(C)O)cc(Nc4ccc(Cl)c(F)c4)nn23)ccc1C(=O)NC1CC1 [Example 401]

>  <IC50 / nM>
1

$$$$

Task: Provide measured IC50 value, entry: CC(C)CNc1cc(-c2cncc3ccccc23)nn2c(-c3ccc(C(=O)NC4CC4)cc3)cnc12 [Example 115]
Result: 27.5

Task: Provide measured IC50 value, entry: CNc1cc(N(C)c2ccccc2O)nn2c(-c3ccc(C(=O)NC4CC4)c(C)c3)cnc12 [Example 532]
Result: 0.2

Task: Provide measured IC50 value, entry: Cc1cc(-c2cnc3c(NCC(C)(C)O)cc(Sc4nncn4C)nn23)ccc1C(=O)NC1CC1 [Example 413]
Result: 45.7

Task: Provide measured IC50 value, entry: Cc1cc(-c2cnc3c(NCC(C)(C)O)cc(Oc4cccc(OCC(C)(C)O)c4)nn23)ccc1C(=O)NC1CC1 [Example 275]
Result: 5.4
